tested on: Streptomyces himastatinicus (ATCC 53653); format: cell-based; settings: ATCC 53653, 72 h
Numbered stars: 1 amine (or outer) side, 2 acyl side, 3 side chain; on linkers, the order of the positions; unused ones are H or OH. Square brackets hold non-standard residues; d marks the D form. Peptide text beside a SMILES is read from it. X1 = O=C([C@@H]1C[C@@]2(O)c3ccccc3N[C@H]2N1[*:1])[*:2]; dPiz(5R-OH) = O=C(O)[C@H]1C[C@@H](O)CNN1; Hiv = CC(C)[C@H](O)C(=O)O
experimental.endpoint: MIC (μg/mL) S. himastatinicus

Examples with answers:
>  <molecule>
CC(C)[C@@H]1OC(=O)[C@@H](C(C)C)NC(=O)[C@@H]2C[C@@]3(O)c4cc(-c5ccc6c(c5)[C@]5(O)C[C@H]7C(=O)N[C@H](C(C)C)C(=O)O[C@@H](C(C)C)C(=O)N8NC[C@H](O)C[C@@H]8C(=O)N[C@@H](CCCCN=[N+]=[N-])C(=O)N[C@H]([C@H](C)O)C(=O)N7[C@@H]5N6)ccc4N[C@H]3N2C(=O)[C@@H]([C@H](C)O)NC(=O)[C@H](CCCCN=[N+]=[N-])NC(=O)[C@H]2C[C@@H](O)CNN2C1=O [(−)-32, Himastatin ε-Azidolysine Derivative]

>  <result>
8 µg/mL

$$$$
>  <molecule>
CC(C)C[C@@H]1NC(=O)[C@H]2C[C@@H](O)CNN2C(=O)[C@H](C(C)C)NC(=O)[C@@H](C(C)C)NC(=O)[C@@H]2C[C@@]3(O)c4cc(-c5ccc6c(c5)[C@]5(O)C[C@H]7C(=O)N[C@H](C(C)C)C(=O)N[C@@H](C(C)C)C(=O)N8NC[C@H](O)C[C@@H]8C(=O)N[C@@H](CC(C)C)C(=O)N[C@H]([C@H](C)O)C(=O)N7[C@@H]5N6)ccc4N[C@H]3N2C(=O)[C@@H]([C@H](C)O)NC1=O [(−)-26, Himastatin Lactam Derivative]

>  <result>
>64 µg/mL

$$$$

Proceed to the following item.
Missing value: MIC (μg/mL) S. himastatinicus, Streptomyces himastatinicus (ATCC 53653), entry CC(C)C[C@@H]1NC(=O)[C@H]2C[C@@H](O)CNN2C(=O)[C@H](C(C)C)OC(=O)[C@@H](C(C)C)NC(=O)[C@@H]2C[C@@]3(O)c4ccccc4N[C@H]3N2C(=O)[C@@H]([C@H](C)O)NC1=O [(+)-6, Himastatin Monomer, reference compound] (cyclo([Hiv][dPiz(5R-OH)]L[dT][X1][dV])) . Fill in?
>64 µg/mL

====

system: Vancomycin-Resistant Enterococcus faecalis (V583); assay type: cell-based; settings: Vancomycin-Resistant (V583)
Numbered stars: 1 amine (or outer) side, 2 acyl side, 3 side chain; on linkers, the order of the positions; unused ones are H or OH. Square brackets hold non-standard residues; d marks the D form. Peptide text beside a SMILES is read from it. X1 = O=C([C@@H]1C[C@@]2(O)c3ccccc3N[C@H]2N1[*:1])[*:2]; X2 = O=C([C@H]1C[C@]2(O)c3ccccc3N[C@@H]2N1[*:1])[*:2]; X3 = O=C([C@@H]1C[C@H](O)CNN1[*:1])[*:2]; dPiz(5R-OH) = O=C(O)[C@H]1C[C@@H](O)CNN1; Lys(N3) = [N-]=[N+]=NCCCC[C@H](N)C(=O)O; dHiv = CC(C)[C@@H](O)C(=O)O; Hiv = CC(C)[C@H](O)C(=O)O
The entries below come with measured MIC (μg/mL) VRE faecalis values attached.

Examples with answers:
>  <compound>
CC(C)C[C@@H]1NC(=O)[C@H]2CCCN2C(=O)[C@H](C(C)C)OC(=O)[C@@H](C(C)C)NC(=O)[C@@H]2C[C@@]3(O)c4ccccc4N[C@H]3N2C(=O)[C@@H]([C@H](C)O)NC1=O [(+)-29, Proline Cyclic Depsihexapeptide] (cyclo([Hiv][dP]L[dT][X1][dV]))

>  <MIC (μg/mL) VRE faecalis>
>64 µg/mL

$$$$
>  <compound>
CC(C)C[C@@H]1NC(=O)[C@H]2C[C@@H](O)CNN2C(=O)[C@H](C(C)C)OC(=O)[C@@H](C(C)C)NC(=O)[C@@H]2C[C@@]3(O)c4ccccc4N[C@H]3N2C(=O)[C@@H]([C@H](C)O)NC1=O [(+)-6, Himastatin Monomer, reference compound] (cyclo([Hiv][dPiz(5R-OH)]L[dT][X1][dV]))

>  <MIC (μg/mL) VRE faecalis>
>64 µg/mL

$$$$
>  <compound>
CC(C)[C@@H]1OC(=O)[C@@H](C(C)C)NC(=O)[C@@H]2C[C@@]3(O)c4ccccc4N[C@H]3N2C(=O)[C@@H]([C@H](C)O)NC(=O)[C@H](CCCCN=[N+]=[N-])NC(=O)[C@H]2C[C@@H](O)CNN2C1=O [(+)-31, Azido Cyclic Depsihexapeptide] (cyclo([Hiv][dPiz(5R-OH)][Lys(N3)][dT][X1][dV]))

>  <MIC (μg/mL) VRE faecalis>
>64 µg/mL

$$$$

Item CC(C)C[C@H]1NC(=O)[C@@H]2C[C@H](O)CNN2C(=O)[C@@H](C(C)C)OC(=O)[C@H](C(C)C)NC(=O)[C@H]2C[C@]3(O)c4ccccc4N[C@@H]3N2C(=O)[C@H]([C@@H](C)O)NC1=O [(−)-6, ent-himastatin monomer] (cyclo([dL]T[X2]V[dHiv][X3])) has what recorded MIC (μg/mL) VRE faecalis?
>64 µg/mL

Next entry: CC(C)C[C@@H]1NC(=O)[C@H]2CCCN2C(=O)[C@H](C(C)C)OC(=O)[C@@H](C(C)C)NC(=O)[C@@H]2C[C@@]3(O)c4cc(-c5ccc6c(c5)[C@]5(O)C[C@H]7C(=O)N[C@H](C(C)C)C(=O)O[C@@H](C(C)C)C(=O)N8CCC[C@@H]8C(=O)N[C@@H](CC(C)C)C(=O)N[C@H]([C@H](C)O)C(=O)N7[C@@H]5N6)ccc4N[C@H]3N2C(=O)[C@@H]([C@H](C)O)NC1=O [(−)-30, Himastatin Proline Derivative]
>64 µg/mL

Next entry: CC(C)C[C@@H]1NC(=O)[C@H]2C[C@@H](O)CNN2C(=O)[C@H](C(C)C)NC(=O)[C@@H](C(C)C)NC(=O)[C@@H]2C[C@@]3(O)c4cc(-c5ccc6c(c5)[C@]5(O)C[C@H]7C(=O)N[C@H](C(C)C)C(=O)N[C@@H](C(C)C)C(=O)N8NC[C@H](O)C[C@@H]8C(=O)N[C@@H](CC(C)C)C(=O)N[C@H]([C@H](C)O)C(=O)N7[C@@H]5N6)ccc4N[C@H]3N2C(=O)[C@@H]([C@H](C)O)NC1=O [(−)-26, Himastatin Lactam Derivative]
32 µg/mL
